Molecular target: human LPA1 (Homo sapiens, UniProt Q92633)
Sequence (Q92633 whole entry): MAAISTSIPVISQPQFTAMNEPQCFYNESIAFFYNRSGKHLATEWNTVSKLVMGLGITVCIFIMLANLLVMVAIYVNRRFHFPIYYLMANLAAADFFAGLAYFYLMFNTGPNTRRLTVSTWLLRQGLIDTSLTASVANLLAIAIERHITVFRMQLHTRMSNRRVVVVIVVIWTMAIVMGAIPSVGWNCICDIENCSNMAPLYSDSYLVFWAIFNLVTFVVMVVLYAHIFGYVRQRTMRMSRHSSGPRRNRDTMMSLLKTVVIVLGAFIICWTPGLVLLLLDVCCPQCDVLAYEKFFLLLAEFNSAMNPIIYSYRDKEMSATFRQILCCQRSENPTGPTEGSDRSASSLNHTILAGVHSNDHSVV
Assay: LPA1 functional antagonist assay (LPA-induced calcium flux)
Details: CHO cells overexpressing human LPA1, 10 nM LPA, read-out: hLPA1 IC50
pIC50: −log10 of the molar value.
Note to self: values exactly at 7 are Met. So pIC50 at or above 7 is Met, below is Not met.

Sample answers from the record:
• CCCCOC(=O)NCc1c(-c2ccc(O[C@H]3CCC[C@H](C(=O)O)C3)cn2)cnn1C [Example 18] = Not met
• Cc1cccc(COC(=O)NCc2c(-c3ccc(O[C@H]4CCC[C@H](C(=O)O)C4)cn3)cnn2C)c1 [Example 21] = Not met
• Cc1nc(-c2cnn(C)c2CNC(=O)OCC2CCC2)ccc1O[C@H]1CCC[C@H](C(=O)O)C1 [Example 35] = Met
• Cc1nc(-c2cnn(C)c2CNC(=O)OCc2ccccc2)ccc1O[C@H]1CCC[C@H](C(=O)O)C1 [Example 33] = Met
• CCCCOC(=O)NCc1c(-c2cnc(O[C@H]3CCC[C@H](C(=O)O)C3)c(C)n2)cnn1C [Example 30] = Not met
• C[C@@H](OC(=O)NCc1c(-c2ccc(O[C@H]3CCC[C@H](C(=O)O)C3)cn2)cnn1C)c1ccccc1 [Example 16] = Met

Consider now this further compound.
pIC50 >= 7 for Cn1ncc(-c2ccc(O[C@H]3CCC[C@H](C(=O)O)C3)cn2)c1CNC(=O)OCCc1ccccc1 [Example 22] ?
Not met

src = patent US11384067B2
